System: L929 mouse fibroblasts (DSMZ ACC 2)
Test: Growth inhibition assay (MTT), L929
Conditions: Tables 1 and 2, cell line not given
attributeMeasured: Cytotoxicity / activity in words

molecule="CC[C@H](C)[C@H](NC(=O)[C@H]1CCCCN1C)C(=O)N(COC(=O)CC(C)C)[C@H](C[C@@H](OC(C)=O)c1nc(C(=O)O)cs1)C(C)C [Analogue 5]" result="maintained good activity"
molecule="CC[C@H](C)[C@H](NC(=O)[C@H]1CCCCN1C)C(=O)N(COC(=O)CC(C)C)[C@H](C[C@@H](OC(C)=O)c1nc(C(=O)NC)cs1)C(C)C [Analogue 4]" result="maintained good activity"
